- assay_target: Substance-P receptor (Homo sapiens, UniProt P25103)
- Sequence (P25103 whole entry): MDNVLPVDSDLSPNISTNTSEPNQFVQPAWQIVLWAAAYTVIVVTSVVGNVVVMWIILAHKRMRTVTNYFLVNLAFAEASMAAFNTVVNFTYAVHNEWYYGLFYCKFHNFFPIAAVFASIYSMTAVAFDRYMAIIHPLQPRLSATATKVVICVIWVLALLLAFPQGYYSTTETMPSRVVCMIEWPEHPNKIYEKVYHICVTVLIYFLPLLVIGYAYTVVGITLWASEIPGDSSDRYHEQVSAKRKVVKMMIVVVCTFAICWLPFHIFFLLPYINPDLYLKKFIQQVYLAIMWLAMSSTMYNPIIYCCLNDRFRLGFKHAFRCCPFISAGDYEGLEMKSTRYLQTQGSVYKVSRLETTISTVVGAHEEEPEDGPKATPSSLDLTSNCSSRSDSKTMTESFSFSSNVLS
- assay_overview: Inhibition of cloned human NK1 (Neurokinin 1) receptor, stably expressed in chinese hamster ovary (CHO) cells was determined
pIC50: −log10 of the molar value.
Assign Criterion met to entries whose pIC50 meets or exceeds 7; assign Criterion not met to the rest.

structure: CSN1CC2(CCN(C(=O)N[C@@H](Cc3c[nH]c4ccccc34)C(=O)N(C)Cc3ccccc3)CC2)c2ccccc21
assigned_category: Criterion met
--
structure: CN(Cc1ccccc1)C(=O)[C@H](Cc1c[nH]c2ccccc12)NC(=O)N1CCC2(CCc3ccccc32)CC1
assigned_category: Criterion met
--
structure: CCN(Cc1ccccc1)C(=O)[C@H](Cc1c[nH]c2ccccc12)NC(=O)N1CCC2(CCc3ccccc32)CC1
assigned_category: Criterion not met
--
structure: O=C(NCCc1ccccc1)[C@H](Cc1c[nH]c2ccccc12)NC(=O)N1CCC2(CCc3ccccc32)CC1
assigned_category: Criterion not met
--
structure: O=C(NCc1ccccc1)[C@H](Cc1c[nH]c2ccccc12)NC(=O)N1CCC2(CCc3ccccc32)CC1
assigned_category: Criterion not met
--
structure: CSN1CC2(CCN(C(=O)N[C@@H](Cc3c[nH]c4ccccc34)C(=O)N(C)Cc3cc(C(F)(F)F)cc(C(F)(F)F)c3)CC2)c2ccccc21
assigned_category: Criterion met
--
structure: CSN1CC2(CCN(C(=O)N[C@@H](COCc3ccccc3)C(=O)N(C)Cc3ccccc3)CC2)c2ccccc21
assigned_category: Criterion not met
--
structure: CC(=O)NC1(c2ccccc2)CCN(CC[C@H](CN(C)C(=O)c2ccccc2)c2ccc(Cl)c(Cl)c2)CC1
assigned_category: Criterion not met
--
structure: CSN1CC2(CCN(C(=O)N[C@@H](Cc3c[nH]c4ccccc34)C(=O)OCc3cc(C(F)(F)F)cc(C(F)(F)F)c3)CC2)c2ccccc21
assigned_category: Criterion met
--
structure: CSN1CC2(CCN(C(=O)N[C@@H](Cc3c[nH]c4ccccc34)C(=O)N(C)Cc3cc(C)cc(C)c3)CC2)c2ccccc21
assigned_category: Criterion met
--
structure: CSN1CC2(CCN(C(=O)N[C@@H](CCc3ccccc3)C(=O)N(C)Cc3ccccc3)CC2)c2ccccc21
assigned_category: Criterion not met
--
structure: Cc1cc(C)cc(CN(C)C(=O)[C@H](Cc2c[nH]c3ccccc23)NC(=O)c2ccccc2)c1
assigned_category: Criterion not met
--
structure: CSN1CC2(CCN(C(=O)N[C@@H](Cc3c[nH]c4ccccc34)C(=O)OCc3ccccc3)CC2)c2ccccc21
assigned_category: Criterion met
